Test system: BDF1 mice, P388 leukemia ip, median survival T/C
PROTOCOL DESCRIPTION: NCI In Vivo Anticancer Drug Screen. Data for tumor model P388 Leukemia (intraperitoneal) in B6D2F1 (BDF1) mice
EXPERIMENTAL PARAMETERS: endpoint: median survival time; dose: 4.0 mg/kg/injection; schedule: Q01DX009 (ip); vehicle: saline; higher = longer survival
Toxic doses and inconclusive results are not listed.
ASSAY METRIC: T/C

Hi team, please reply with T/C for each item in this list.
1. COc1ccc2nc3cc(Cl)ccc3c(NC(C)CCCN(CCCl)CCCl)c2c1 (stereo not given)
2. N#CC1(C#N)C(c2ccccc2)C1(C#N)C#N
3. CC1(C)N=C(N)N=C(N)N1c1cccc(CCCCc2ccc(S(=O)(=O)F)cc2Cl)c1
4. CCC[P+](c1ccccc1)(c1ccccc1)c1ccccc1

1. 95 % of control
2. 108 % of control
3. 116 % of control
4. 115 % of control

Tested on BDF1 mice, P388 leukemia ip, median survival T/C: NCCO/C=C/C(N)C(=O)O (stereo not given) . Observed T/C: 99 % of control
